# Test system: Enterococcus faecalis
# procedure.details: Antibacterial activity against Enterococcus faecalis assessed as growth inhibition after 16 hrs by agar dilution method
# Format: functional
readout.type: MIC (µg/mL)

* O=C1O[C@@H](Cn2ccnn2)[C@@H]2COc3cc(-c4ccc(Cn5cnnn5)nc4)ccc3N12 | 4
* Cn1nnnc1-c1ccc(-c2ccc3c(c2)OC[C@H]2[C@H](Cn4ccnn4)OC(=O)N32)cn1 | 4
* O=C1O[C@@H](Cn2ccnn2)[C@@H]2COc3cc(-c4ccc(Cn5ncnn5)nc4)ccc3N12 | 2
* N#Cc1ccc(-c2ccc3c(c2)OC[C@H]2[C@H](Cn4ccnn4)OC(=O)N32)cn1 | 1
* O=C1O[C@@H](Cn2ccnn2)[C@@H]2COc3cc(-c4ccc(CO)nc4)ccc3N12 | 4
* CC(=O)c1ccc(-c2ccc3c(c2)OC[C@H]2[C@H](Cn4ccnn4)OC(=O)N32)cn1 | 2
* O=C1O[C@@H](Cn2ccnn2)[C@@H]2COc3cc(-c4ccc(Cn5ccnn5)nc4)ccc3N12 | 4
* CC(O)c1ccc(-c2ccc3c(c2)OC[C@H]2[C@H](Cn4ccnn4)OC(=O)N32)cn1 (stereo partly specified) | 2
* Cc1nc(-c2ccc(-c3ccc4c(c3)OC[C@H]3[C@H](Cn5ccnn5)OC(=O)N43)cn2)no1 | 8
* Cn1nnc(-c2ccc(-c3ccc4c(c3)OC[C@H]3[C@H](Cn5ccnn5)OC(=O)N43)cn2)n1 | 4

---

# Test system: Enterococcus faecalis
# procedure.details: Antibacterial activity against Enterococcus faecalis assessed as growth inhibition after 16 hrs by agar dilution method
# Format: functional
readout.type: MIC

• NC(=O)[C@@H]1OC(=O)N2c3ccc(-c4ccc(-n5ccoc5=O)nc4)cc3OC[C@@H]12 = > 32 µg/mL
• C/C(=N\OC(C)C)c1ccc(-c2ccc3c(c2)OC[C@H]2[C@H](Cn4ccnn4)OC(=O)N32)cn1 = > 32 µg/mL
• Cc1nc(-c2ccc(-c3ccc4c(c3)OC[C@H]3[C@H](C(N)=O)OC(=O)N43)cn2)no1 = > 32 µg/mL
• N#Cc1ccc(-c2ccc3c(c2)OC[C@H]2[C@H](C(N)=O)OC(=O)N32)cn1 = > 32 µg/mL
• CN1C[C@@H](c2ccc(-c3ccc4c(c3)OC[C@H]3[C@H](Cn5ccnn5)OC(=O)N43)cn2)OC1=O = 2 µg/mL
• CCO/N=C(\C)c1ccc(-c2ccc3c(c2)OC[C@H]2[C@H](Cn4ccnn4)OC(=O)N32)cn1 = > 32 µg/mL
• O=C1O[C@@H](Cn2ccnn2)[C@@H]2COc3cc(-c4ccc(Cn5cncn5)nc4)ccc3N12 = 1 µg/mL
• O=C1O[C@@H](Cn2ccnn2)[C@@H]2COc3cc(-c4ccc(-n5cc(CO)oc5=O)nc4)ccc3N12 = 1 µg/mL
